These measurements were taken from PubChem BioAssay AID488801.

Target: Ammonium transporter MEP2 (Saccharomyces cerevisiae (strain ATCC 204508 / S288c)) (UniProt P41948)
Sequence (P41948 whole entry, looked up, the tested form may be a part): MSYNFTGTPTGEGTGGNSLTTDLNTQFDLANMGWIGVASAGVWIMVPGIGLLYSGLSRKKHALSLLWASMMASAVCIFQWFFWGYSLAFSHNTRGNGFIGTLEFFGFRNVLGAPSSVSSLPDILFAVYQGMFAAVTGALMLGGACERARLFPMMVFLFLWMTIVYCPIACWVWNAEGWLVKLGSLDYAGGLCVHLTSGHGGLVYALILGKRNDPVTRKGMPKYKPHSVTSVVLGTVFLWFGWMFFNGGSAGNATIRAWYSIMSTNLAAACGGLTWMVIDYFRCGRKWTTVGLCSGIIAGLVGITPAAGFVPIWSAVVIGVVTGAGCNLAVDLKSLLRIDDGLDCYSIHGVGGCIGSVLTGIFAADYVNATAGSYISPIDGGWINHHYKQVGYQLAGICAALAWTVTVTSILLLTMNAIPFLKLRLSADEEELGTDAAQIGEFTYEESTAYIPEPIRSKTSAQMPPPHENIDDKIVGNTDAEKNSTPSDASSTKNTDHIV
Assay: yeast MEP2-GFP fusion level changes, TOR pathway – flow cytometry, KU SAR set, S. cerevisiae, dose response (AID 488801)
Conditions: flow cytometry MCF, 3 h
The source made the active and inactive calls.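 Rule for the calls: active = EC50 at or below 33 microM; inactive = the rest.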
Log the outcome using a class from y for active, n for inactive

Record excerpt, results attached:
Nc1cc(Nc2cccc(F)c2)nc(NCc2ccccc2)n1 ... n
Cc1cc(C(=O)Nc2nc(-c3ccccn3)cs2)ccc1[N+](=O)[O-] ... n
CSC1=NS(=O)(=O)c2c(C)nn(C)c2S1 ... n
CNc1nc(N)c([N+](=O)[O-])c(NCC2CCCO2)n1 (stereo unspecified) ... n

Challenge: Query: recorded result category for COc1ccc([N+](=O)[O-])c(S(=O)(=O)c2ccccc2)n1 in this test
Response given: n

Challenge: Query: recorded result category for O=C(OCC(=O)N1CCN(C(=O)c2ccco2)CC1)c1cc(-c2cccc(Br)c2)nc2ccccc12 in this test
Response given: n

Challenge: Query: recorded result category for CCN(CC)C(=O)Oc1ccnc2cc(Cl)ccc12 in this test
Response given: n

###

Target: Ammonium transporter MEP2 (Saccharomyces cerevisiae (strain ATCC 204508 / S288c))
Assay: yeast MEP2-GFP fusion level changes, TOR pathway – flow cytometry, KU SAR set, S. cerevisiae, dose response (AID 488801)
Conditions: flow cytometry MCF, 3 h
Calls of active or inactive are those of the source.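 How the source made its calls: active means EC50 at or below 33 microM; inactive means the rest.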
Log the outcome using a class from YES (active), NO (inactive)

Record excerpt, results attached:
Cc1ccc(/C=C2/C(=O)ON=C2c2ccccc2)o1 ... NO
O=C(Nc1nc(-c2ccccn2)cs1)C1COc2ccccc2O1 (centres undefined) ... NO
C/C(=N\NC(=O)c1ccc(C(C)(C)C)cc1)c1ccccn1 ... NO
O=C(Oc1c(Cl)cc(Cl)c2cccnc12)c1ccco1 ... NO
Cc1ccc(C(c2cc(Cl)c3cccnc3c2O)N2CCN(C)CC2)cc1 (centres undefined) ... NO

Challenge: Query: recorded result category for O=C(Nc1nc(-c2ccccn2)cs1)c1cc2ccccc2o1 in this test
Response given: NO

Challenge: Query: recorded result category for CN1CCN(C(c2ccc(C(F)(F)F)cc2)c2ccc3cccnc3c2O)CC1 (centres undefined) in this test
Response given: NO

Challenge: Query: recorded result category for C/C(=N\NC(=O)c1cccc(Br)c1)c1ccccn1 in this test
Response given: NO

###

Molecular target: Ammonium transporter MEP2 (Saccharomyces cerevisiae (strain ATCC 204508 / S288c)) (UniProt P41948)
Assay: yeast MEP2-GFP fusion level changes, TOR pathway – flow cytometry, KU SAR set, S. cerevisiae, dose response (AID 488801)
Conditions: flow cytometry MCF, 3 h
Activity calls are given as the source filed them.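 Rule for the calls: active = EC50 at or below 33 microM; inactive = the rest.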
Reported endpoint: EC50

Before answering, review these 5 worked examples.
O=C(Oc1ccnc2cc(Cl)ccc12)N1CCCCCC1 ... 3.97 µM
O=C(Oc1c(Cl)cc(Cl)c2cccnc12)c1cccc([N+](=O)[O-])c1 ... inactive
Nc1cc(Oc2cccc(Cl)c2)nc(NCc2ccccc2)n1 ... inactive
CNc1nc(N)c([N+](=O)[O-])c(Nc2cccc(Cl)c2)n1 ... 2.72 µM
CNc1nc(N)c([N+](=O)[O-])c(Nc2cccc(F)c2)n1 ... 15.8 µM

Challenge: Give the value of EC50 reported for the following: Cc1ccc(S(=O)(=O)c2ncccc2[N+](=O)[O-])cc1
Response given: inactive
